Data origin, for the record: PubChem BioAssay AID1259417

inhibition by entry:
PROTOCOL_TEXT: M. tuberculosis growth inhibition, HTS (AID 1259417);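 also: bacteria grown with compound for 5 days at 37 °C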
SETUP_CONDITIONS: M. tuberculosis DsRed fluorescence growth inhibition; stronger effect = higher value; concentration not given here
In all, about 1,100 compounds went through this assay and about 760 (69%) were called active. So high a share suggests a set chosen from earlier hits. This is one part of the list.
ASSAY_METRIC: inhibition (%)

- MOLECULE: "COc1ccccc1-c1coc2cc(OCC(=O)OCc3ccccc3)ccc2c1=O"
  REPORTED_VALUE: 36.9
- MOLECULE: "Cc1ccc(S(=O)(=O)Nc2ccc(NC(=O)Nc3cccc(C(F)(F)F)c3)cc2)cc1"
  REPORTED_VALUE: 1.5
- MOLECULE: "O=C(Nc1ccc(-c2nc3ccccc3c(=O)o2)cc1)c1ccccc1I"
  REPORTED_VALUE: 78.1
- MOLECULE: "CC(=O)N1CCN(c2ccc(NC(=S)NC(=O)c3cc4ccccc4o3)cc2)CC1"
  REPORTED_VALUE: 3.83
- MOLECULE: "COC(=O)COc1ccc2c(=O)c(-c3ccccc3OC)coc2c1"
  REPORTED_VALUE: 16.1
- MOLECULE: "CCOC(=O)C(Cc1ccccc1)C(=O)Nc1cccc2ccccc12 (configuration not stated)"
  REPORTED_VALUE: -0.257
- MOLECULE: "COC(=O)CSc1nc2ccccc2nc1SCC(=O)OC"
  REPORTED_VALUE: 11.6

* * *

PROTOCOL_TEXT: M. tuberculosis growth inhibition, HTS (AID 1259417);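 also: bacteria grown with compound for 5 days at 37 °C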
SETUP_CONDITIONS: M. tuberculosis growth inhibition; stronger effect = higher value; concentration not given here
Among all 1,100 compounds or so, about 760 (69%) were called active. The set was probably picked from earlier hits. Some of the results follow.
ASSAY_METRIC: inhibition (%)

- COMPOUND: "Cc1ccc2nsnc2c1S(=O)(=O)Nc1cccc2cccnc12"
  REPORTED_VALUE: 99.4
- COMPOUND: "CCc1ccc(Oc2nc([N+](=O)[O-])nn2C)cc1"
  REPORTED_VALUE: 95.4
- COMPOUND: "CCOC(=O)CSc1ncnc2c1cnn2-c1ccccc1"
  REPORTED_VALUE: 70.7
- COMPOUND: "COC(=O)COc1ccc(C=C(C#N)c2nc3ccccc3[nH]2)cc1"
  REPORTED_VALUE: 79.9
- COMPOUND: "O=c1c2ccccc2[nH]c(=S)n1CCCN1CCN(c2cccc(Cl)c2)CC1"
  REPORTED_VALUE: -11.2
- COMPOUND: "Cn1c(COc2cccc3ccccc23)nnc1SCC(=O)OC1CCCCC1"
  REPORTED_VALUE: 92.4
- COMPOUND: "CCn1c(COc2cccc3ccccc23)nnc1SCC(=O)OC1CCCCC1"
  REPORTED_VALUE: 80.7
- COMPOUND: "C#CCOCCOCCOCCNc1nc(N2CCN(C(=O)[C@H](Cc3cc4ccccc4[nH]3)n3cc([C@@H](N)CC(C)C)nn3)CC2)nc(N2CCN(C(=O)[C@H](Cc3cc4ccccc4[nH]3)n3cc([C@@H](N)CC(C)C)nn3)CC2)n1"
  REPORTED_VALUE: 50.3
- COMPOUND: "CCOC(=O)CNC(=O)CSc1ncnc2c1nnn2Cc1ccccc1F"
  REPORTED_VALUE: 22.5
- COMPOUND: "CCOC(=O)Cn1nnc(-c2ccc(OCc3ccccc3C)cc2)n1"
  REPORTED_VALUE: 96.9
- COMPOUND: "Cc1cc(NC(=O)c2ccc([N+](=O)[O-])o2)c(C)cc1I"
  REPORTED_VALUE: 92
- COMPOUND: "O=S(=O)(Nc1cccc2cccnc12)c1ccc(Br)cc1"
  REPORTED_VALUE: 91.6
- COMPOUND: "CC(=O)Oc1c(C(=O)c2ccccc2)sc2ccccc12"
  REPORTED_VALUE: 52.4
- COMPOUND: "Cc1cccc(C(=O)N2N=C(c3ccc(Br)cc3)CC2(O)C(F)(F)F)c1 (centres undefined)"
  REPORTED_VALUE: 41

* * *

PROTOCOL_TEXT: M. tuberculosis growth inhibition, HTS (AID 1259417);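 also: bacteria grown with compound for 5 days at 37 °C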
SETUP_CONDITIONS: M. tuberculosis DsRed fluorescence growth inhibition; stronger effect = higher value; concentration not given here
Among all 1,100 compounds or so, about 760 (69%) were called active. So high a share suggests a set chosen from earlier hits. Some of the results follow.
# key: entry, value: inhibition

- COMPOUND: "CCC(C)NCCCOc1ccc(Cl)c2ccccc12 (stereo not drawn)"
  UNIT_DESCRIPTOR: "%"
  inhibition: 97.1
- COMPOUND: "CC(=O)Oc1c(C(=O)c2ccccc2)sc2ccccc12"
  UNIT_DESCRIPTOR: "%"
  inhibition: 79.9
- COMPOUND: "CC(Nc1nc(N2CCCCC2)nc2ccccc12)c1ccccc1 (stereo not drawn)"
  UNIT_DESCRIPTOR: "%"
  inhibition: 98.6
- COMPOUND: "O=C(C=Cc1cccs1)N1CCN(Cc2ccc3c(c2)OCO3)CC1"
  UNIT_DESCRIPTOR: "%"
  inhibition: 99.4
- COMPOUND: "CCOC(=O)C(C#N)=Cc1ccc(-c2ccc(F)cc2)o1"
  UNIT_DESCRIPTOR: "%"
  inhibition: 2.37
- COMPOUND: "C#CCOCCOCCOCCNc1nc(N2CCN(C(=O)[C@H](Cc3cc4ccccc4[nH]3)n3cc([C@@H](N)CC(C)C)nn3)CC2)nc(N2CCN(C(=O)[C@H](Cc3cc4ccccc4[nH]3)n3cc([C@@H](N)CC(C)C)nn3)CC2)n1"
  UNIT_DESCRIPTOR: "%"
  inhibition: 68
- COMPOUND: "Cc1ccc(-c2ccc(C=CC(=O)c3ccco3)o2)cc1"
  UNIT_DESCRIPTOR: "%"
  inhibition: 9.38
- COMPOUND: "O=C(NC1CCCCC1)N1CCN(Cc2ccc3c(c2)OCO3)CC1"
  UNIT_DESCRIPTOR: "%"
  inhibition: 99.4
- COMPOUND: "CCOC(=O)Cn1cc(C#N)c2cccc(CC)c21"
  UNIT_DESCRIPTOR: "%"
  inhibition: 14.1
- COMPOUND: "Cc1cc(=O)[nH]c(-n2nc(C)cc2C)n1"
  UNIT_DESCRIPTOR: "%"
  inhibition: 91.4
- COMPOUND: "CSc1ncnc2c1ncn2CC(=O)Nc1ccc(C)c(C)c1"
  UNIT_DESCRIPTOR: "%"
  inhibition: 32.5
- COMPOUND: "Cc1nc(SCc2csc(C)n2)c2c3c(sc2n1)CCCC3"
  UNIT_DESCRIPTOR: "%"
  inhibition: 13.5
- COMPOUND: "N=c1sc(/C=C2\\C=Nc3ccccc32)c(O)n1-c1nccs1"
  UNIT_DESCRIPTOR: "%"
  inhibition: 97.2

* * *

PROTOCOL_TEXT: M. tuberculosis growth inhibition, HTS (AID 1259417);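 also: bacteria grown with compound for 5 days at 37 °C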
SETUP_CONDITIONS: M. tuberculosis DsRed fluorescence growth inhibition; concentration not given here
About 760 (69%) of roughly 1,100 compounds were called active. The rule behind the calls is not given here. So high a share suggests a set chosen from earlier hits. Some of the results follow.
Possible outcomes: active, inactive

- COMPOUND: "CC1=NN(c2nc(-c3ccc(Cl)cc3)cs2)C(=O)C1C (stereo not given)"
  GROUP: "inactive"
- COMPOUND: "c1ccc(-c2nc(NCCCn3ccnc3)c3oc4ccccc4c3n2)cc1"
  GROUP: "active"
- COMPOUND: "COC(=O)CN1C(c2cccc(Cl)c2)=Nc2ccc(Cl)cc2C1c1ccccc1 (stereo not given)"
  GROUP: "active"
- COMPOUND: "CCC(C)c1ccc(OCCCCn2ccnc2)cc1 (stereo not given)"
  GROUP: "active"
- COMPOUND: "COC(=O)c1c(-c2ccc(Cl)cc2)csc1NC(=O)c1c(F)c(F)c(F)c(F)c1F"
  GROUP: "active"
- COMPOUND: "Cc1ccccc1C(=O)Nc1sc2c(c1C(=O)N1CCN(Cc3ccccc3)CC1)CCCCC2"
  GROUP: "inactive"
- COMPOUND: "COC(=O)c1sc(NC(=O)c2c(F)c(F)c(F)c(F)c2F)c(C(N)=O)c1C"
  GROUP: "active"
- COMPOUND: "CCCCc1ccc(NC(=O)c2cc3cc(Br)cc(OC)c3oc2=O)cc1"
  GROUP: "active"
- COMPOUND: "COc1ccc(C2(CNC(=O)c3cc([N+](=O)[O-])cc([N+](=O)[O-])c3)CCCC2)cc1OC"
  GROUP: "active"
- COMPOUND: "CCOC(=O)Cc1c(C)nc2c(-c3cccc(Br)c3)c[nH]n2c1=O"
  GROUP: "active"
- COMPOUND: "COC(=O)c1c(NC(=O)c2cc(OC)cc(OC)c2)sc2c1C(C(=O)OC)CC2 (stereo not given)"
  GROUP: "inactive"
- COMPOUND: "CCOC(=O)C(/C=C(\\C#N)C(=O)OCC)=C(/N)N1CCN(c2ccc(Cl)cc2)CC1"
  GROUP: "active"
- COMPOUND: "CC1CC(C)CN(C(=O)c2ccc(CNc3c(N4CCCC4)c(=O)c3=O)cc2)C1 (stereo not given)"
  GROUP: "active"
- COMPOUND: "CCOC(=O)c1c(NC(=O)c2c(F)c(F)c(F)c(F)c2F)sc(C(=O)OC)c1C"
  GROUP: "active"
- COMPOUND: "O=C(Nc1nnc(C2=COCCO2)o1)c1cccc(Cl)c1"
  GROUP: "inactive"
- COMPOUND: "Cc1nc2ccc(C(=O)OCc3nnc(-c4ccccc4)o3)cc2nc1C"
  GROUP: "inactive"
- COMPOUND: "CCN1CCc2c(sc(NC(=O)c3ccccc3)c2-c2nc3ccccc3s2)C1"
  GROUP: "active"
- COMPOUND: "CCc1ccc(Oc2nc([N+](=O)[O-])nn2C)cc1"
  GROUP: "active"
- COMPOUND: "COc1cc(OC)c(-c2nn3c(C4CCCCC4)nnc3s2)cc1OC"
  GROUP: "inactive"
- COMPOUND: "CCOC(=O)c1c(NC(=O)c2cccc(OC)c2)sc(C)c1-c1ccccc1"
  GROUP: "inactive"
- COMPOUND: "Cc1cc(C)c2sc(N3CCCC3)nc2c1"
  GROUP: "active"
- COMPOUND: "CCCn1c(CNc2ccccc2O)nc2ccccc21"
  GROUP: "active"
- COMPOUND: "COc1ccc(OC)c(NC(=O)c2cc3cc(Cl)ccc3oc2=O)c1"
  GROUP: "inactive"
- COMPOUND: "N#Cc1ccc(-c2ccc(OCC(=O)Nc3cccnc3)cc2)cc1"
  GROUP: "active"
- COMPOUND: "CCC(C)(C)c1ccc(OCCCn2ccnc2)cc1"
  GROUP: "active"
